Molecular target: E. coli GroEL/ES (Escherichia coli)
Construct: made in house; host or cells: GroEL in NEB 5-alpha E. coli; GroES in E. coli BL21 (DE3)
Sequence (P0A6F5 2-548): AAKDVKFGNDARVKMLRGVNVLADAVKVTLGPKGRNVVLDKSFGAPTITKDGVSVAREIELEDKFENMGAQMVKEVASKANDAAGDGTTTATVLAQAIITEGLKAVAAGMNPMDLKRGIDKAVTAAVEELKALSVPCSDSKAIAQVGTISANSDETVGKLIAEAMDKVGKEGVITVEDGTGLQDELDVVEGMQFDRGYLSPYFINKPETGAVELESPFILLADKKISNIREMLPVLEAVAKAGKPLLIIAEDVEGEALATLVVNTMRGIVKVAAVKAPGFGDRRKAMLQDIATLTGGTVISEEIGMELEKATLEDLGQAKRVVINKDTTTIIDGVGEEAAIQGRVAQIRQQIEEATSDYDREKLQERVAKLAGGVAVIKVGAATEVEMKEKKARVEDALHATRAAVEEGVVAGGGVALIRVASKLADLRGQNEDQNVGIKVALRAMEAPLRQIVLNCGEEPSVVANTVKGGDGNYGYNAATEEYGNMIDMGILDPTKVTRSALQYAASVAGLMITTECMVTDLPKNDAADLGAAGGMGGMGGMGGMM
Assay: GroEL/ES-mediated dRho refolding assay
Format: biochemical
pIC50: −log10 of the molar value.
Could you label it t if measured pIC50 is 5 or higher, and f otherwise?

Input line: Evaluate O=C(N/N=C/c1ccc([N+](=O)[O-])o1)c1ccc(NS(=O)(=O)c2cccs2)cc1 : pIC50 at minimum 5?
Output line: f

Input line: Evaluate COc1ccc(C(=O)N/N=C/c2ccc([N+](=O)[O-])o2)cc1 : pIC50 at minimum 5?
Output line: f

Input line: Evaluate O=C(N/N=C/c1ccc(O)c2ncccc12)c1cccs1 : pIC50 at minimum 5?
Output line: f

Input line: Evaluate O=C(N/N=C/c1ccc([N+](=O)[O-])o1)c1ccncc1 : pIC50 at minimum 5?
Output line: f

Input line: Evaluate O=C1CN(/N=C/c2ccc(O)c3ncccc23)C(=O)N1 : pIC50 at minimum 5?
Output line: f

Input line: Evaluate O=C(N/N=C/c1ccc(O)c2ncccc12)c1cccc2ccccc12 : pIC50 at minimum 5?
Output line: t

Input line: Evaluate O=C1CN(/N=C/c2ccc([N+](=O)[O-])o2)C(=O)N1 [Nitrofurantoin, reference compound] : pIC50 at minimum 5?
Output line: f

Input line: Evaluate O=C(N/N=C/c1ccc(O)cc1)c1ccccc1 [Compound 36, N′-(4-hydroxybenzylidene)benzohydrazide] : pIC50 at minimum 5?
Output line: f

Input line: Evaluate O=C(N/N=C/c1ccc(O)c2ncccc12)c1ccccc1 : pIC50 at minimum 5?
Output line: f

Input line: Evaluate O=C(N/N=C/c1ccc([N+](=O)[O-])o1)c1ccc(NS(=O)(=O)c2ccc(Br)cc2)cc1 : pIC50 at minimum 5?
Output line: f

Input line: Evaluate O=C(N/N=C/c1cccc2ncccc12)c1ccccc1 : pIC50 at minimum 5?
Output line: f

Input line: Evaluate O=Cc1ccc([N+](=O)[O-])o1 [Compound 41, reference compound] : pIC50 at minimum 5?
Output line: f

Input line: Evaluate O=[N+]([O-])c1ccc(O)c2ncccc12 [Nitroxoline, reference compound] : pIC50 at minimum 5?
Output line: t

Input line: Evaluate O=C(N/N=C/c1ccc([N+](=O)[O-])o1)c1cccc2ccccc12 : pIC50 at minimum 5?
Output line: f

Input line: Evaluate O=C(N/N=C/c1ccc(O)c2ncccc12)c1ccc(NS(=O)(=O)c2ccc(Br)cc2)cc1 : pIC50 at minimum 5?
Output line: t

Input line: Evaluate COc1ccc(C(=O)N/N=C/c2cccc3ccccc23)cc1 : pIC50 at minimum 5?
Output line: f

###

Please go through the items and note down their SI (CC50/EC50) Intestine.
Tested on: FHs 74 Int small intestine cells
Assay: in vitro
Please state the value as a number alone, without comment.

Input line: Please indicate recorded SI (CC50/EC50) Intestine of O=C(N/N=C/c1ccc([N+](=O)[O-])o1)c1ccncc1 measured with FHs 74 Int small intestine cells.
Output line: 38

Input line: Please indicate recorded SI (CC50/EC50) Intestine of COc1ccc(C(=O)N/N=C/c2ccc([N+](=O)[O-])o2)cc1 measured with FHs 74 Int small intestine cells.
Output line: 40

Input line: Please indicate recorded SI (CC50/EC50) Intestine of CN(C)c1ccc(C(=O)N/N=C/c2ccc([N+](=O)[O-])o2)cc1 measured with FHs 74 Int small intestine cells.
Output line: 9.3

Input line: Please indicate recorded SI (CC50/EC50) Intestine of O=C(N/N=C/c1ccc([N+](=O)[O-])o1)c1ccccc1 measured with FHs 74 Int small intestine cells.
Output line: 45

Input line: Please indicate recorded SI (CC50/EC50) Intestine of O=C(N/N=C/c1ccc([N+](=O)[O-])o1)c1cccs1 measured with FHs 74 Int small intestine cells.
Output line: 168

Input line: Please indicate recorded SI (CC50/EC50) Intestine of O=C(N/N=C/c1ccc([N+](=O)[O-])o1)c1ccc(Cl)s1 measured with FHs 74 Int small intestine cells.
Output line: 190

###

Target: E. coli GroEL/ES (Escherichia coli)
Construct: made in house; host or cells: GroEL in NEB 5-alpha E. coli; GroES in E. coli BL21 (DE3)
Assay: GroEL/ES-mediated dRho refolding assay
Type: biochemical
Please go through the items and note down their pIC50.
When answering, recall that pIC50 equals minus log10 of the concentration in mol/L, and write that number alone.

Input line: Please indicate recorded pIC50 of O=C(N/N=C/c1ccc(O)c2ncccc12)c1ccc(O)cc1 [Compound 7] measured with E. coli GroEL/ES (Escherichia coli).
Output line: 5.05

Input line: Please indicate recorded pIC50 of O=C(N/N=C/c1ccc([N+](=O)[O-])o1)c1ccc(O)cc1 [Nifuroxazide, reference compound] measured with E. coli GroEL/ES (Escherichia coli).
Output line: 3.88

Input line: Please indicate recorded pIC50 of O=C(N/N=C/c1ccc(O)c2ncccc12)c1ccc(Cl)s1 [Compound 4] measured with E. coli GroEL/ES (Escherichia coli).
Output line: 5.85

Input line: Please indicate recorded pIC50 of O=C(N/N=C/c1ccc([N+](=O)[O-])o1)c1cccc(Oc2ccccc2)c1 [Compound 24] measured with E. coli GroEL/ES (Escherichia coli).
Output line: 4.30

Input line: Please indicate recorded pIC50 of O=C(N/N=C/c1cccc2ccccc12)c1ccccc1 [Compound 34] measured with E. coli GroEL/ES (Escherichia coli).
Output line: 3.68

###

Please go through the items and note down their pEC50.
Tested on: Klebsiella pneumoniae strain NCTC 9633 (ATCC #13883)
Assay: bacterial proliferation assay, K. pneumoniae
Type: cell-based
Conditions: Klebsiella pneumoniae, read-out: Bacterial Proliferation EC50 K. pneumoniae
pEC50: −log10 of the molar value.

Input line: Read off the recorded pEC50 for O=C(N/N=C/c1ccc([N+](=O)[O-])o1)c1ccc(NS(=O)(=O)c2ccc(Br)cc2)cc1
Output line: < 4.00

Input line: Read off the recorded pEC50 for O=C(N/N=C/c1ccc(O)c2ncccc12)c1ccc(NS(=O)(=O)c2ccc(Br)cc2)cc1
Output line: < 4.00

Input line: Read off the recorded pEC50 for O=C(N/N=C/c1ccc([N+](=O)[O-])o1)c1ccccc1Oc1ccccc1
Output line: < 4.00

Input line: Read off the recorded pEC50 for O=C1CN(/N=C/c2ccc(O)c3ncccc23)C(=O)N1
Output line: < 4.00

Input line: Read off the recorded pEC50 for O=C(N/N=C/c1ccc([N+](=O)[O-])o1)c1cccc(Oc2ccccc2)c1
Output line: < 4.00

Input line: Read off the recorded pEC50 for O=C(N/N=C/c1ccc([N+](=O)[O-])o1)c1ccc(O)cc1 [Nifuroxazide, reference compound]
Output line: 4.43

Input line: Read off the recorded pEC50 for O=C(N/N=C/c1ccc(O)c2ncccc12)c1cccs1
Output line: 4.00

Input line: Read off the recorded pEC50 for COc1ccc(C(=O)N/N=C/c2cccc3ccccc23)cc1
Output line: < 4.00

Input line: Read off the recorded pEC50 for COc1ccc(C(=O)N/N=C/c2ccco2)cc1
Output line: < 4.00

Input line: Read off the recorded pEC50 for CCN(CC)S(=O)(=O)c1cccc(C(=O)N/N=C/c2ccc([N+](=O)[O-])o2)c1
Output line: < 4.00

Input line: Read off the recorded pEC50 for O=C(N/N=C/c1ccc(O)cc1)c1ccccc1 [Compound 36, N′-(4-hydroxybenzylidene)benzohydrazide]
Output line: < 4.00

Input line: Read off the recorded pEC50 for O=C(N/N=C/c1ccc(O)c2ncccc12)c1ccccc1
Output line: 4.09

Input line: Read off the recorded pEC50 for CN(C)c1ccc(C(=O)N/N=C/c2ccc([N+](=O)[O-])o2)cc1
Output line: < 4.00

Input line: Read off the recorded pEC50 for O=Cc1ccc(O)c2ncccc12 [Compound 40, reference compound]
Output line: 4.82

Input line: Read off the recorded pEC50 for O=C(N/N=C/c1cccc2ccccc12)c1ccccc1
Output line: < 4.00

Input line: Read off the recorded pEC50 for O=C(N/N=C/c1ccc([N+](=O)[O-])o1)c1ccncc1
Output line: 4.38

Input line: Read off the recorded pEC50 for O=C(N/N=C/c1ccc(O)c2ccccc12)c1ccccc1
Output line: < 4.00

Input line: Read off the recorded pEC50 for CCOc1ccc(S(=O)(=O)Nc2ccc(C(=O)N/N=C/c3ccc(O)c4ncccc34)cc2)cc1
Output line: < 4.00

Input line: Read off the recorded pEC50 for O=C(N/N=C/c1cccc2ncccc12)c1ccccc1
Output line: < 4.00

Input line: Read off the recorded pEC50 for O=C(N/N=C/c1ccc([N+](=O)[O-])o1)c1ccc(Cl)s1
Output line: 4.72

###

Biological target: E. coli GroEL/ES (Escherichia coli)
Construct: made in house; host or cells: GroEL in NEB 5-alpha E. coli; GroES in E. coli BL21 (DE3)
Test: GroEL/ES-mediated dMDH refolding assay in the presence of E. coli NfsB nitroreductase
Assay type: biochemical
Please go through the items and note down their IC50.

Input line: Read off the recorded IC50 for COc1ccc(C(=O)NN)cc1 [Compound 42, reference compound]
Output line: > 83 µM

Input line: Read off the recorded IC50 for COc1ccc(C(=O)N/N=C/c2ccccc2)cc1 [Compound 37, N′-benzylidene-4-methoxybenzohydrazide]
Output line: > 83 µM

Input line: Read off the recorded IC50 for O=Cc1ccc([N+](=O)[O-])o1 [Compound 41, reference compound]
Output line: > 83 µM

Input line: Read off the recorded IC50 for COc1ccc(C(=O)N/N=C/c2cccc3ccccc23)cc1
Output line: > 83 µM

Input line: Read off the recorded IC50 for O=C(N/N=C/c1ccc(O)c2ccccc12)c1ccccc1
Output line: > 83 µM

Input line: Read off the recorded IC50 for O=C1CN(/N=C/c2ccc(O)c3ncccc23)C(=O)N1
Output line: > 83 µM

Input line: Read off the recorded IC50 for O=C(N/N=C/c1ccc(O)c2ncccc12)c1ccncc1
Output line: > 83 µM

Input line: Read off the recorded IC50 for COc1ccc(C(=O)N/N=C/c2ccc(O)cc2)cc1
Output line: > 83 µM

Input line: Read off the recorded IC50 for COc1ccc(C(=O)N/N=C/c2ccc(O)c3ccccc23)cc1
Output line: > 83 µM

Input line: Read off the recorded IC50 for O=C(N/N=C/c1ccc(O)cc1)c1ccccc1 [Compound 36, N′-(4-hydroxybenzylidene)benzohydrazide]
Output line: > 83 µM

Input line: Read off the recorded IC50 for O=C(N/N=C/c1ccc(O)c2ncccc12)c1ccccc1
Output line: > 83 µM

Input line: Read off the recorded IC50 for O=C(N/N=C/c1cccc2ncccc12)c1ccccc1
Output line: > 83 µM

Input line: Read off the recorded IC50 for O=C(N/N=C/c1cccc2ccccc12)c1ccccc1
Output line: > 83 µM

Input line: Read off the recorded IC50 for O=C(N/N=C/c1ccc(O)c2ncccc12)c1cccc(Oc2ccccc2)c1
Output line: 21 µM

Input line: Read off the recorded IC50 for O=Cc1ccc(O)c2ncccc12 [Compound 40, reference compound]
Output line: > 83 µM

Input line: Read off the recorded IC50 for COc1ccc(C(=O)N/N=C/c2ccco2)cc1
Output line: > 83 µM

Input line: Read off the recorded IC50 for COc1ccc(C(=O)N/N=C/c2cccc3ncccc23)cc1
Output line: > 83 µM

Input line: Read off the recorded IC50 for O=C(N/N=C/c1ccc([N+](=O)[O-])o1)c1cccc(Oc2ccccc2)c1
Output line: 2.8 µM

Input line: Read off the recorded IC50 for O=C(N/N=C/c1ccccc1)c1ccccc1 [Compound 38, N′-benzylidenebenzohydrazide]
Output line: > 83 µM

Input line: Read off the recorded IC50 for O=[N+]([O-])c1ccc(O)c2ncccc12 [Nitroxoline, reference compound]
Output line: 27 µM

Input line: Read off the recorded IC50 for CCOc1ccc(S(=O)(=O)Nc2ccc(C(=O)N/N=C/c3ccc([N+](=O)[O-])o3)cc2)cc1
Output line: 39 µM

Input line: Read off the recorded IC50 for O=C(N/N=C/c1ccc(O)c2ncccc12)c1ccccc1Oc1ccccc1
Output line: 15 µM
